TARGET SYSTEM: UniProtKB P28347
Sequence (P28347 whole entry, species assumed): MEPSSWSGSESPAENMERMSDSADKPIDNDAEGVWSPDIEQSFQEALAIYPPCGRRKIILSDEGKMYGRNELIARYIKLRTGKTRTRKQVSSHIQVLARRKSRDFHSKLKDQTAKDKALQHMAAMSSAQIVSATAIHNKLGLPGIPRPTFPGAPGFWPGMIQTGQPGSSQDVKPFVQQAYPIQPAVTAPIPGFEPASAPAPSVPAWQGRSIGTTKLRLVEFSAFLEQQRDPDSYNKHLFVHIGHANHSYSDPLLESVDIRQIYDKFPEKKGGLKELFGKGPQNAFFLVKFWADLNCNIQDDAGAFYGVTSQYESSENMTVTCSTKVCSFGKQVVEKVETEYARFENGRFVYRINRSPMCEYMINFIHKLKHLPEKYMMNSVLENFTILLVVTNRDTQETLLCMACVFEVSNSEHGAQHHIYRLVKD
EXPERIMENT SUMMARY: TEAD lipid pocket TR-FRET (Lipid HTRF) probe competition assay
Assay type: binding
DETAILS: 4 hours incubation with compound; read-out: Lipid HTRF TEAD1 IC50
Method: His-tagged TEAD proteins are pre-incubated with TEAD project compounds for 30 minutes or 4 hours at room temperature. Biotinylated lipid pocket probes are then added to the TEAD/Compound mixture and incubated for 60 minutes at room temperature. The lipid pocket probe competes with the test compound for the TEAD lipid pocket until equilibrium is reached. […] The potency of compounds as TEAD lipid pocket binders is determined by IC50 value generated using a non-linear 4 parameter curve fit. […]
Consider the following compounds; for each one, report its IC50.
One number for each entry, in nM.

C=C(CNc1cc(-c2ccc(OC(F)(F)F)cc2)c2c(c1C#N)CCO2)C(N)=O [Compound 44] ... 110
C=C(CNc1cc(-c2ccc(OC(F)(F)F)cc2)c2c(c1CO)CCO2)C(N)=O [Compound 35] ... 160
C=C(CNc1cc(-c2ccc(OC(F)(F)F)cc2)c2c(c1CO)CCO2)C(=O)NO [Compound 46] ... 50
C=C(CNc1cc(-c2ccc(S(F)(F)(F)(F)F)cc2)c2c(c1C#N)CCO2)C(=O)NO [Compound 38] ... 90
C=C(CNc1cc(-c2ccc(S(F)(F)(F)(F)F)cc2)c2c(c1C#N)CCO2)C(N)=O [Compound 48] ... 250

Provide IC50 values for the following items, in order.
1. C=C(CNc1cc(-c2ccc(OC(F)(F)F)cc2)c2ncsc2c1C#N)C(=O)NO [Compound 41]
2. C=C(CNc1cc(-c2cc(C(C)C)cs2)c2c(c1C#N)CCO2)C(=O)O [Compound 32]
3. [2H]C1([2H])COc2c(-c3ccc(C(C)C)cc3)cc(NCC(=C)C(=O)NO)c(C#N)c21 [Compound 29]

Response:
80
10
60

Provide IC50 values for the following items, in order.
1. [2H]C1([2H])Cc2c(C#N)c(NCC(=C)C(=O)NO)cc(-c3ccc(OC(F)(F)F)cc3)c2O1 [Compound 37]
2. C=C(CNc1cc(-c2ccc(OC(F)(F)F)cc2)c2c(c1C#N)CCO2)C(=O)NO [Compound 39]
3. C=C(CNc1cc(-c2ccc(S(F)(F)(F)(F)F)cc2)c2c(c1C#N)CCO2)C(=O)O [Compound 45]

Response:
1: 50; 2: 40; 3: 30
